UniProt:O76074 pIC50 data
pIC50: −log10 of the molar value.
parameter: pIC50

INSERT INTO measurements (chemical_string, measured_on, reading) VALUES
  ('O=c1c(NCCN2CCOCC2)nc2ccc(-c3ccc(O)nc3)nc2n1CC1CCCCC1', 'UniProt:O76074', 6.27),
  ('O=c1c(NCC2CCOCC2)nc2ccc(-c3ccncc3)nc2n1CC1CCCCC1', 'UniProt:O76074', 7.47),
  ('COc1ccc(-c2ccc3nc(NCC(=O)N(C)C)c(=O)n(CC4CCCCC4)c3n2)cn1', 'UniProt:O76074', 7.84),
  ('Cc1noc(C)c1-c1ccc2nc(NCCN3CCOCC3)c(=O)n(CC3CCCCC3)c2n1', 'UniProt:O76074', 7.44),
  ('O=c1c(NCC2CCOCC2)nc2ccc(-c3cnc(O)nc3)nc2n1CC1CCCCC1', 'UniProt:O76074', 8.54);
